biological target: Tyrosine-protein kinase JAK1 (Homo sapiens); assay: JAK1 (PSTAT3 TF1) Alpha Screen Assay
Sequence (P23458 whole entry): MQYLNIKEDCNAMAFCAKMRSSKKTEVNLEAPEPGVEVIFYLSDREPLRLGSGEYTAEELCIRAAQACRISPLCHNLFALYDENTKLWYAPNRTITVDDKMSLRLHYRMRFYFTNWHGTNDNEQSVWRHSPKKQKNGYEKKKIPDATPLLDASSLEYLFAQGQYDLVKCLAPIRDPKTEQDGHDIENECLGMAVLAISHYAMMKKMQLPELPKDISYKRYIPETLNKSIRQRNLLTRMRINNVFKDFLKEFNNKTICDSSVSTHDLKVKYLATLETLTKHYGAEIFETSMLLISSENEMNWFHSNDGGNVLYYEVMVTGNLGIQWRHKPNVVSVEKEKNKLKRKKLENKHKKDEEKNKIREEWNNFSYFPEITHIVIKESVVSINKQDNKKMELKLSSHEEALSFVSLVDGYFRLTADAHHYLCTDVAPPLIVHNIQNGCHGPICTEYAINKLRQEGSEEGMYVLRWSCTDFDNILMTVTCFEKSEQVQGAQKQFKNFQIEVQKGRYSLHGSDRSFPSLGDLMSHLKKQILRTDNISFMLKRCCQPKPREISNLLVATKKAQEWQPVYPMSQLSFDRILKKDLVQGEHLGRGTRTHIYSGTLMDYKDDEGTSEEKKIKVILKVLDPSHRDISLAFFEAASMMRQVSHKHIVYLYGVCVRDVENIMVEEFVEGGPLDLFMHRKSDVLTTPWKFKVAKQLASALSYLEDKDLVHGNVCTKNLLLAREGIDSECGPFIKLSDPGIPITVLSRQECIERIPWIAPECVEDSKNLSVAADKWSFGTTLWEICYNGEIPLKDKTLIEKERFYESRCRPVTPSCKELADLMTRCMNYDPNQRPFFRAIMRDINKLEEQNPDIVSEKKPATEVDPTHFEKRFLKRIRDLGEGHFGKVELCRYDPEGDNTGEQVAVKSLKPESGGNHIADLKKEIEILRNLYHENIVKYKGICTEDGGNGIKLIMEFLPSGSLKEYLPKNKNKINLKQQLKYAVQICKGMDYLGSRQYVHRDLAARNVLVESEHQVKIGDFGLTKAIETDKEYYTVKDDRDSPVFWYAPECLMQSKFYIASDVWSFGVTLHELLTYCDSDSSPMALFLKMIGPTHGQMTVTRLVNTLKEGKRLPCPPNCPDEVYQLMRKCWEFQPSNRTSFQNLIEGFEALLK
Entries and their EC50 values follow.
Observable: EC50 (µM)

>>> value_observed("CO[C@@]1(c2cc(C)cc(-c3cn(C)c4cnc(NC(C)=O)cc34)n2)CCOC1")
41
>>> value_observed("CO[C@@]1(c2cc(C(F)F)cc(-c3cn(C4COC4)c4cnc(NC(N)=O)cc34)n2)CCOC1 [US20190276450, Example 12b.4]")
40
>>> value_observed("CC(=O)Nc1cc2c(-c3cc(C(F)F)cc([C@]4(CO)CCOC4)n3)cn(C)c2cn1")
7.05
>>> value_observed("CO[C@@]1(c2cc(OC[C@@H](C)O)cc(-c3cn(C)c4cnc(NC(C)=O)cc34)n2)CCOC1")
49

* * *

Molecular target: Non-receptor tyrosine-protein kinase TYK2 (Homo sapiens, UniProt P29597)
Sequence (P29597 whole entry): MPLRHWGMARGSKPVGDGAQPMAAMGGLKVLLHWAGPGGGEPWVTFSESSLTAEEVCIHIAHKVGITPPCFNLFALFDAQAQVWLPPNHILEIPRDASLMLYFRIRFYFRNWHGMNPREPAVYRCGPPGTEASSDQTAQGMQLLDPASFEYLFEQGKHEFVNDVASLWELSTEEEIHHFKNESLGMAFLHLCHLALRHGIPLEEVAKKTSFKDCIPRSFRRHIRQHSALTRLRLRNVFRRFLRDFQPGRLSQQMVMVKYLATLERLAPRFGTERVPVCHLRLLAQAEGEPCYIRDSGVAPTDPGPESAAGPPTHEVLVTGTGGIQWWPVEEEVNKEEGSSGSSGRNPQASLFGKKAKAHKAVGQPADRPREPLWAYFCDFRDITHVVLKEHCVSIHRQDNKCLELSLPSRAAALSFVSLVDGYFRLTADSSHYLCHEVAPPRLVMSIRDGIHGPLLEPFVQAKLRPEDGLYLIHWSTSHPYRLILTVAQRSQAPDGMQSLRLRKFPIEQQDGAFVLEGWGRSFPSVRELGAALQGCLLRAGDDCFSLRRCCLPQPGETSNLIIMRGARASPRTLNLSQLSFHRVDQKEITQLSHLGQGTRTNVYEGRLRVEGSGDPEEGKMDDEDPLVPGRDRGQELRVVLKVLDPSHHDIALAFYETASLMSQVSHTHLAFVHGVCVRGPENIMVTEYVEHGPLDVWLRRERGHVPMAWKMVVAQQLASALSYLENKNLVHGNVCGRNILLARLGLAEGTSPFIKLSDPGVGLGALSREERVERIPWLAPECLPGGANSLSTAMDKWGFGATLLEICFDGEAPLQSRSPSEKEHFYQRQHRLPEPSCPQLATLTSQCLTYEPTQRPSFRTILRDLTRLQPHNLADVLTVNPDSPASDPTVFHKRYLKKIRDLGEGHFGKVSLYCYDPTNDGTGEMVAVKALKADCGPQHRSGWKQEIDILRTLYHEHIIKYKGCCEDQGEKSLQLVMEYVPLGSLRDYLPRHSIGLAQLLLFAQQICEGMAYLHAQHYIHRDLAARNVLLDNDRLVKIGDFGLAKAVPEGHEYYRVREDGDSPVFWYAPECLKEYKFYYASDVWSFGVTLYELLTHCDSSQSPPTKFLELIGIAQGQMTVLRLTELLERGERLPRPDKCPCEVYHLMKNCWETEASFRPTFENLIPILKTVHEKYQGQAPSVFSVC
Experiment: TYK2 (TYK2/JAK2 PSTAT4 T-BLAST) Alpha Screen Assay
Description: IL-12 is known to transduce its signal through IL-12 receptor via Jak2 and/or Tyk2. For that reason, the activity against Tyk2/Jak2 was measured by determining the inhibition of IL-12 induced phosphorylation of STAT4 in T-blast cells. […] See, e.g., Sohn et al., J. Immunology (2013) 2205-2216.
Entries and their log10 of EC50 values follow.
Observable: log10 of EC50 (log10 of the value in nM)

>>> value_observed("COc1cc(-c2cn(C3COC3)c3cnc(NC(C)=O)cc23)nc([C@]2(OC)CCOC2)c1 [US20190276450, Example 5]")
2.05
>>> value_observed("CO[C@@]1(c2cc(C)cc(-c3cn([C@H]4C[C@H](C#N)C4)c4cnc(NC(C)=O)cc34)n2)CCOC1 [US20190276450, Example 17.4]")
2.10
>>> value_observed("COc1cc(-c2cn([C@@H]3CCOC3)c3cnc(NC(C)=O)cc23)nc([C@@]2(OC)CCOC2)c1 [US20190276450, Example 5.3]")
2.75
>>> value_observed("COCc1cc(-c2nn(C)c3cnc(NC(C)=O)cc23)nc([C@]2(OC)CCOC2)c1 [US20190276450, Example 23]")
2.52
>>> value_observed("CO[C@@]1(c2cc(OCC#N)cc(-c3cn(C)c4cnc(NC(C)=O)cc34)n2)CCOC1 [US20190276450, Example 6.3]")
2.55
>>> value_observed("CO[C@@]1(c2cc(C(F)F)cc(-c3cn([C@H]4C[C@@H](C#N)C4)c4cnc(NC(C)=O)cc34)n2)CCOC1 [US20190276450, Example 17.3]")
0.90

* * *

molecular target: Tyrosine-protein kinase JAK1 (Homo sapiens); experiment: JAK1 (PSTAT3 TF1) Alpha Screen Assay
Observable: EC50

>>> value_observed("COCc1cc(-c2cn(C)c3cnc(NC(=O)CO)cc23)nc([C@]2(OC)CCOC2)c1")
"> 100 µM"
>>> value_observed("COCc1cc(-c2cn(C)c3cnc(NC(C)=O)cc23)nc([C@]2(OC)CCOC2)c1")
"> 40 µM"
>>> value_observed("CO[C@@]1(c2cc(C(F)F)cc(-c3cn(C)c4cnc(NC(=O)CO)cc34)n2)CCOC1")
"> 25 µM"
